Each recorded value in this set is attributed to ChEMBL document CHEMBL2062435.

Record form. Attribute: MIC. Fill in for each entry.
tested on: Escherichia coli; test: Antimicrobial activity against extended spectrum beta-lactamases-producing Escherichia coli 10-3 after 18-24 hrs by two-fold serial dilution method; format: functional
Numbers only, in µg/mL.

Consider the reported MIC for these molecules:
COc1ccc(CO/N=C2\CN(c3nc4c(cc3F)c(=O)c(C(=O)O)cn4C3CC3)CC2CN)c(OC)c1OC.CS(=O)(=O)O (racemic)	32
COc1cccc(CO/N=C2\CN(c3nc4c(cc3F)c(=O)c(C(=O)O)cn4C3CC3)CC2CN)c1OC.CS(=O)(=O)O (racemic)	32
COc1ccc(CO/N=C2\CN(c3nc4c(cc3F)c(=O)c(C(=O)O)cn4C3CC3)CC2CN)cc1.CS(=O)(=O)O (racemic)	16

// next item, MIC requested
Data point: COc1ccc(CO/N=C2\CN(c3nc4c(cc3F)c(=O)c(C(=O)O)cn4C3CC3)CC2CN)c(OC)c1.CS(=O)(=O)O (racemic) ; MIC = 32
